Quick list: Percent Effect per entry.
- Organism: Homo sapiens
- experimental.protocol: To identify inhibition of the IFN signalling (Jak-Stat) pathway via expression of an eGFP reporter gene under the control of an IFN-stimulated response element (ISRE) containing MxA promoter.
- Type: functional
- Parameters: scale not given: direction of the effect not stated beside the values
- assay.setup: 30 µM
assay.metric: Percent Effect (%)

Cc1csc(C2CCCN(C(=O)c3ccc(=O)n(C)n3)C2)n1 (configuration not stated) = -5.09
COc1ccc(CCN2CCCC2Cn2nc(C)nc2C)cc1 (configuration not stated) = 26.4
CN(Cc1cnn(C)c1)C(=O)c1ccc(=O)n(C)n1 = 9.62
O=C(Cc1ccsc1)N1CCn2cc(CN3CCCC3)nc2C1 = -16
CCCNC(=O)N1CCN(Cc2cc(C)no2)CC1 = 2.72
CCOc1ccc(N2CCCN=C2NC(=O)c2ccccc2C)cc1 = -13.7
Fc1cccc(N2CCCC3(CN(Cc4ccncc4)CCO3)C2)c1 (configuration not stated) = 29.6
COc1ccc(CN2CCn3cc(CN4CCN(C)CC4)nc3C2)cc1 = -7.72
O=C(NCc1cc(=O)n2c(n1)CN(CC1CCOC1)CCC2)C1CC1 (configuration not stated) = -4.97
CO[C@H]1CCN(S(=O)(=O)c2cn(C)cn2)[C@H]1Cc1cccnc1 = -0.203
CN(CC1(O)CCCN(c2ccccn2)C1)C(=O)Cc1ccsc1 (configuration not stated) = -8.8
COC1CCN(C(=O)Cc2csc(-c3ncccn3)n2)CC1 = -15.6

// data source = ChEMBL document CHEMBL3988442
